Tested on: Klebsiella pneumoniae
Experiment: Activity of Klebsiella pneumoniae Beta-lactamase TEM-26
Reported log10 kcat values follow for various compounds
reported-metric: log10 kcat (log10 of the value in s⁻¹)

| cpd-smiles | log10 kcat |
| --- | --- |
| C[C@@H](O)[C@H]1C(=O)N2C(C(=O)O)=C(S[C@@H]3CN[C@H](CNS(N)(=O)=O)C3)[C@H](C)[C@H]12 | -3.43 |
| CC1(C)S[C@@H]2[C@H](NC(=O)Cc3ccccc3)C(=O)N2[C@H]1C(=O)O | 1.88 |
| C[C@@H](O)[C@H]1C(=O)N2C(C(=O)O)=C(S[C@@H]3CN[C@H](C(=O)N(C)C)C3)[C@H](C)[C@H]12 | -3.41 |
| O=C(Cc1cccs1)N[C@@H]1C(=O)N2C(C(=O)[O-])=C(C[n+]3ccccc3)CS[C@H]12 | 1.57 |
| CC(C)(O/N=C(\C(=O)N[C@@H]1C(=O)N2C(C(=O)[O-])=C(C[n+]3ccccc3)CS[C@H]12)c1csc(N)n1)C(=O)O | 1.98 |
| C[C@@H](O)[C@H]1C(=O)N2C(C(=O)O)=C(SCCNC=N)C[C@H]12 | -2.62 |

----------
System: Klebsiella oxytoca
Assay: Activity of Klebsiella oxytoca Beta-lactamase K1 relative to Cephaloridine
// Activity lookup, one value per entry

| cpd-smiles | test-target | Activity |
| --- | --- | --- |
| CC(C)(O/N=C(\C(=O)N[C@@H]1C(=O)N2C(C(=O)[O-])=C(C[n+]3ccccc3)CS[C@H]12)c1csc(N)n1)C(=O)O | Klebsiella oxytoca | 0.0027% |
| CC1(C)S[C@@H]2[C@H](NC(=O)Cc3ccccc3)C(=O)N2[C@H]1C(=O)O | Klebsiella oxytoca | 160% |
| C[C@@H](O)[C@H]1C(=O)N2C(C(=O)O)=C(S[C@@H]3CN[C@H](C(=O)N(C)C)C3)[C@H](C)[C@H]12 | Klebsiella oxytoca | 0.002% |
| C[C@@H](O)[C@H]1C(=O)N2C(C(=O)O)=C(SCCNC=N)C[C@H]12 | Klebsiella oxytoca | 0.019% |

----------
Biological target: Beta-lactamase IMP-1 (Pseudomonas aeruginosa) (UniProt Q8G9Q0)
Assay: Kcat/Km ratio of Pseudomonas aeruginosa IMP-1 relative to Cephaloridine
Overview of recorded Activity for various molecules

| cpd-smiles | test-target | Activity (%) |
| --- | --- | --- |
| CC(C)(O/N=C(\C(=O)N[C@@H]1C(=O)N2C(C(=O)[O-])=C(C[n+]3ccccc3)CS[C@H]12)c1csc(N)n1)C(=O)O | Beta-lactamase IMP-1 (Pseudomonas aeruginosa) (UniProt Q8G9Q0) | 5.7 |
| C[C@@H](O)[C@H]1C(=O)N2C(C(=O)O)=C(S[C@@H]3CN[C@H](C(=O)N(C)C)C3)[C@H](C)[C@H]12 | Beta-lactamase IMP-1 (Pseudomonas aeruginosa) (UniProt Q8G9Q0) | 31 |
| CC1(C)S[C@@H]2[C@H](NC(=O)Cc3ccccc3)C(=O)N2[C@H]1C(=O)O | Beta-lactamase IMP-1 (Pseudomonas aeruginosa) (UniProt Q8G9Q0) | 19 |
| C[C@@H](O)[C@H]1C(=O)N2C(C(=O)O)=C(S[C@@H]3CN[C@H](CNS(N)(=O)=O)C3)[C@H](C)[C@H]12 | Beta-lactamase IMP-1 (Pseudomonas aeruginosa) (UniProt Q8G9Q0) | 28 |
| C[C@@H](O)[C@H]1C(=O)N2C(C(=O)O)=C(SCCNC=N)C[C@H]12 | Beta-lactamase IMP-1 (Pseudomonas aeruginosa) (UniProt Q8G9Q0) | 45 |

From: ChEMBL document CHEMBL1212772
